Assay: qHTS assay to identify small molecule antagonists of the androgen receptor (AR) signaling pathway using the MDA cell line in the presence of 0.5 nM R1881 - cell viability counter screen (AID 1259242); also: nearly all actives have a fitted effect of over 45% in size
Settings: MDA-kb2 viability, CellTiter-Fluor protease fluorescence, 16 h; series mostly up to 92.4 µM
Results filed as inconclusive are left out. The source made the active and inactive calls. Calls follow the shape of the dose curve; as a rule, active = well fitted cell-killing curve with a large enough effect in the repeat runs; inconclusive = weak or mixed curves, or effect the other way; inactive = flat fitted curve, though single readings scatter.
value.type: viability change, negative = cytotoxic

compound_structure=C[C@H](N)[C@H](O)c1cccc(O)c1 result=inactive
compound_structure=CC(C)(C)c1n[nH]c(=S)n(N)c1=O result=inactive
compound_structure=Nc1ncnc(Nc2ccccc2)n1 result=inactive

----------
Target: Peroxisome proliferator-activated receptor delta (Homo sapiens) (UniProt Q03181)
Sequence (Q03181 whole entry, looked up): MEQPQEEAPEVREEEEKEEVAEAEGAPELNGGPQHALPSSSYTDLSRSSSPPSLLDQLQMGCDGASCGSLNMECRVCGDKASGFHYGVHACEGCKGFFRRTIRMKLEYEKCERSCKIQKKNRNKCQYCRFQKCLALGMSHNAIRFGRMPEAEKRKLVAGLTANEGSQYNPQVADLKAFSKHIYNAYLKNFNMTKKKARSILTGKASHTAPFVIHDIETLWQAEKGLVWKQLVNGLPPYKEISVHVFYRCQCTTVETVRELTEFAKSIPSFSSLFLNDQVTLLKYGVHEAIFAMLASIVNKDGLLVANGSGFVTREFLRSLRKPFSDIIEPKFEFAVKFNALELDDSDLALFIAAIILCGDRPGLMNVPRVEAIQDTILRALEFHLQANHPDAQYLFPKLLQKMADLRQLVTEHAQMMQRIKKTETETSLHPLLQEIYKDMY
Assay: qHTS assay to identify small molecule antagonists of the peroxisome proliferator-activated receptor delta (PPARd) signaling pathway (AID 743215);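 also: cells stimulated with agonist L165041 at 300 nM final during compound exposure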
Conditions: HEK293H PPARd-UAS-bla, beta-lactamase FRET ratio, antagonist, 17 h; series mostly up to 62 µM
Description: U.S. Tox21 Program National Center for Advancing Translational Sciences [NCATS] NIH Chemical Genomics Center [NCGC] U.S. Environmental Protection Agency [EPA] National Institutes of Environmental Health Sciences [NIEHS] National Toxicology Program [NTP] U.S. Food and Drug Administration [FDA] […]
Results filed as inconclusive are left out. The source made the active and inactive calls. Calls follow the shape of the dose curve; as a rule, active = well fitted inhibition curve with a large enough effect in the signal ratio in the repeat runs (not every such curve was filed as active); inconclusive = weak or mixed curves, or effect the other way; inactive = no such curve, though single readings can be large or run the other way; the % refers to the signal ratio.
value.type: ratio activity, negative = inhibition

Past entries and their recorded results:
compound="CC(CC=O)CCCC(C)(C)O (centres undefined)" result=inactive
compound=CCCCOC(=O)c1ccccc1 result=inactive
compound=COc1ccc2nc(SCc3ncc(C)c(OC)c3C)[nH]c2c1 result=inactive
compound=CC(=C(CCOC(=O)C(C)C)SSC(CCOC(=O)C(C)C)=C(C)N(C=O)Cc1cnc(C)nc1N)N(C=O)Cc1cnc(C)nc1N result=inactive
compound=COc1cc(NS(=O)(=O)c2ccc(N)cc2)nc(OC)n1 result=inactive

Consider now this further compound.
State the recorded ratio activity, negative = inhibition for this entry: O=C(CCN1CCN(CCO)CC1)N1c2ccccc2Sc2ccc(C(F)(F)F)cc21
inactive
